tested on: recombinant human CFTR carrying the premature stop codon (PTC) mutation G542X; assay: CFTR-PTC mutant translation readthrough, Nanoluc tagged CFTR luminescence (G542X cell line); type: cell-based; conditions: fold over 10 μM G-418; in combination with G418; G542X cell line
PROPERTY MEASURED: CFTR G542X ACTIVITY Fold 10 μM G-418

Would you please look over these solved cases?
{"COMPOUND": "O=C1OC(CO)CN1c1ccc(OCc2c(Cl)cccc2Cl)cc1 (centres unmarked)", "CFTR G542X ACTIVITY Fold 10 μM G-418": "B′ (B′ = ≥5X to <10X)"}
{"COMPOUND": "Clc1cccc(Cl)c1COc1ccc(-n2cncn2)cc1", "CFTR G542X ACTIVITY Fold 10 μM G-418": "A′ (A′ = ≥10X)"}
{"COMPOUND": "Cc1cccc(C(F)(F)F)c1COc1cnc(N2CCO[C@@H](CO)C2)nc1", "CFTR G542X ACTIVITY Fold 10 μM G-418": "A′ (A′ = ≥10X)"}
{"COMPOUND": "OCc1ccn(-c2ncc(OCc3c(Cl)cccc3OC(F)(F)F)cn2)n1", "CFTR G542X ACTIVITY Fold 10 μM G-418": "A′ (A′ = ≥10X)"}
{"COMPOUND": "O=C(O)C1CCN(c2ncc(OCc3c(Cl)cccc3C(F)(F)F)cn2)C1 (centres unmarked)", "CFTR G542X ACTIVITY Fold 10 μM G-418": "A′ (A′ = ≥10X)"}

Hi! What's the reported CFTR G542X ACTIVITY Fold 10 μM G-418 for `FC(F)(F)c1cccc(Cl)c1COc1cnc(-n2ncc(-c3ccccn3)n2)nc1` on recombinant human CFTR carrying the premature stop codon (PTC) mutation G542X?
A′ (A′ = ≥10X)

Hi! What's the reported CFTR G542X ACTIVITY Fold 10 μM G-418 for `NC(=O)N1CCN(c2ncc(OCc3c(Cl)cccc3C(F)(F)F)cn2)CC1` on recombinant human CFTR carrying the premature stop codon (PTC) mutation G542X?
A′ (A′ = ≥10X)

Hi! What's the reported CFTR G542X ACTIVITY Fold 10 μM G-418 for CNCC1CN(c2ncc(OCc3c(Cl)cccc3Cl)cn2)CCO1 (centres unmarked) on recombinant human CFTR carrying the premature stop codon (PTC) mutation G542X?
B′ (B′ = ≥5X to <10X)

Hi! What's the reported CFTR G542X ACTIVITY Fold 10 μM G-418 for NC(=O)NCC1CN(c2ncc(OCc3c(Cl)cccc3Cl)cn2)CCO1 (centres unmarked) on recombinant human CFTR carrying the premature stop codon (PTC) mutation G542X?
A′ (A′ = ≥10X)

Hi! What's the reported CFTR G542X ACTIVITY Fold 10 μM G-418 for `Cc1cccc(OC(F)F)c1COc1cnc(-n2ccc(CO)n2)nc1` on recombinant human CFTR carrying the premature stop codon (PTC) mutation G542X?
A′ (A′ = ≥10X)

Hi! What's the reported CFTR G542X ACTIVITY Fold 10 μM G-418 for OCC1CN(c2ccc(OCc3c(Cl)cccc3C(F)(F)F)cn2)CCO1 (centres unmarked) on recombinant human CFTR carrying the premature stop codon (PTC) mutation G542X?
A′ (A′ = ≥10X)

Data credit: patent US20250228865A1
